Hello, the source for this data is patent US20180057604A1, in case you need it.

The entries below are paired with their reported Kd.
Target: T1, murine BACE1 ECD
T1 construct: analyte of the Octet assay (200 nM) and enzyme of the first short substrate assay
T1 sequence (single chain, as listed by the source limits assumed): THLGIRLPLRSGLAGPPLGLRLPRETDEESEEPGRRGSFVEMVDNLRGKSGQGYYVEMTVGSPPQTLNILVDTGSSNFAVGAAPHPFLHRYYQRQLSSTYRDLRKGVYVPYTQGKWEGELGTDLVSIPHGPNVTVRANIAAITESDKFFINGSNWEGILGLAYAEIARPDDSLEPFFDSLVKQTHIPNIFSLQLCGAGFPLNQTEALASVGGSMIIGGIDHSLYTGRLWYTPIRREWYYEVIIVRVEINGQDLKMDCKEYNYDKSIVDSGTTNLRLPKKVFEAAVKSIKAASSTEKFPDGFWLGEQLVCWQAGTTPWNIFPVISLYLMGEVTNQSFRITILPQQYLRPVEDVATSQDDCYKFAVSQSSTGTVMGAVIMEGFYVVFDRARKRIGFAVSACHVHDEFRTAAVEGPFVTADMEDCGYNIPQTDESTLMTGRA
Test: Octet, pH 5.0;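 further: antibodies captured on anti-human capture sensor tips, dissociation monitored in PBS with BSA buffer, kinetics fitted with a one-to-one binding model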

Reference set (9 entries):
6271 (antibody, V domains shown, anti-BACE1 IgG) VH: QVQLVQSGAEVKKPGSSVKVSCKASGGTISGYGISWVRQAPGQGLEWMGNIIPGFGTANYAQKFQGRVTITADESTSTAYMELSSLRSEDTAVYYCARSGGTKYGMLDVWGQGTMVTVSS VL: EIVMTQSPATLSVSPGERATLSCRASQSVSSNLAWYQQKPGQAPRLLIYGASTRATGIPARFSGSGSGTEFTLTISSLQSEDFAVYYCQQLILWPPRTFGGGTKVEIK	< 0.31 nM
6297 (antibody, V domains shown, anti-BACE1 IgG) VH: QLQLQESGPGLVKPSETLSLTCTVSGGPISSSSYYWGWIRQPPGKGLEWIGNIYYSGSTYYNPSLRGRVTISVDTSKNQFSLKLSSVTAADTAVYYCARLGHGYNYFDLWGRGTLVTVSS VL: EIVLTQSPATLSLSPGERATLSCRASQSVSSYLAWFQQKPGQAPRLLIYDASNRATGIPARFSGSGSGTDFTLTISSLEPEDFAVYYCQQVYVWPPRTFGGGTKVEIK	0.32 nM
6300 (antibody, V domains shown, anti-BACE1 IgG) VH: QVQLVQSGAEVKKPGSSVKVSCKASGGTLSGYAISWVRQAPGQGLEWMGNIIPGFGTANYAQKSQGRVTITADESTSTAYMELSSLRSEDTAVYYCARSGGTRYGMLDVWGQGTMVTVSS VL: EIVLTQSPATLSVSPGERATLSCRASQSVGSNLAWYQQKPGQAPRLLIYGASTRATGIPARFSGSGSGTEFTLTISSLQSEDFAVYYCQQSFLWPPRTFGGGTKVEIK	< 0.4 nM
6273 (antibody, V domains shown, anti-BACE1 IgG) VH: QVQLVQSGAEVKKPGSSVKVSCKASGGTFSGYGISWVRQAPGQGLEWMGNIIPGFGTANYAQKFQGRVTITADESTSTAYMELSSLRSEDTAVYYCARSGGTKYGMLDVWGQGTMVTVSS VL: EIVMTQSPATLSVSPGERATLSCRASQSVSSNIAWYQQKPGQAPRLLIYGASTRATGIPARFSGSGSGTEFTLTISSLQSEDFAVYYCQQLLLWPPRTFGGGTKVEIK	< 0.4 nM
6294 (antibody, V domains shown, anti-BACE1 IgG) VH: QLQLQESGPGLVKPSETLSLTCTVSGGSISSSSHYWGWIRQPPGKGLEWIGMIYYSGSTWYNPSLKSRVTISVDTSKNQFSLKLSSVTAADTAVYYCARVGHGVSYFDLWGRGTLVTVSS VL: EIVLTQSPATLSLSPGERATLSCRASQSVSSYLAWYQQKPGQAPRLLIYDASKRATGIPARFSGSGSGTDFTLTISSLEPEDFAVYYCQQVYTWPPRTFGGGTKVEIK	< 0.34 nM
6280 (antibody, V domains shown, anti-BACE1 IgG) VH: QLQLQESGPGLVKPSETLSLTCTVSGGSTSSSSYYWGWIRQPPGKGLEWIGSIYRSGSTYYNPSFKSRVTISVDTSKNQFSLKLSSVTAADTAVYYCARVGHGISYFDLWGRGTLVTVSS VL: EIVLTQSPATLSLSPGERATLSCRASQSVSSYLAWYQQKPGQAPRLLIYDASNRATGIPARFSGSGSGTDFTLTISSLEPEDFAVYYCQQSLTWPPRTFGGGTKVEIK	< 0.31 nM
6293 (antibody, V domains shown, anti-BACE1 IgG) VH: QLQLQESGPGLVKPSETLSLTCTVSGGSISSSSYYWGWIRQPPGKGLEWIGMIYYSGSTWYNPSLRSRVTISVDTSKNQFSLKLSSVTAADTAVYYCARVGHGVSYFDLWGRGTLVTVSS VL: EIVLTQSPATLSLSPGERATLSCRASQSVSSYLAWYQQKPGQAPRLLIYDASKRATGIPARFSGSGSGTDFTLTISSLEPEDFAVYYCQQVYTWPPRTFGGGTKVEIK	< 0.28 nM
6270 (antibody, V domains shown, anti-BACE1 IgG) VH: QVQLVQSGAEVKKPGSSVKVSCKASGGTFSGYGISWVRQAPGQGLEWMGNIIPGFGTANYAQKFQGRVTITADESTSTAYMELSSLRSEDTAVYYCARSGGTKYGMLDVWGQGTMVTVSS VL: EIVMTQSPATLSVSPGERATLSCRASQSVSSNLAWYQQKPGQAPRLLIYGASTRATGIPARFSGSGSGTEFTLTISSLQSEDFAVYYCQQLLLWPPRTFGGGTKVEIK	< 0.41 nM
6296 (antibody, V domains shown, anti-BACE1 IgG) VH: QLQLQESGPGLVKPSETLSLTCTVSGGSISSSSYYWGWIRQPPGKGLEWIGNIYYSGSTYYNPSLRGRVTISVDTSKNQFSLKLSSVTAADTAVYYCARLGHGYNYFDLWGRGTLVTVSS VL: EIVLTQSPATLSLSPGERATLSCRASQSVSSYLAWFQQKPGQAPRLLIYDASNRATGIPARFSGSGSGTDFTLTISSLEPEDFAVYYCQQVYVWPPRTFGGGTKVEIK	< 0.24 nM

Attention now shifts to the item below.
Entry 6298 (antibody, V domains shown, anti-BACE1 IgG) VH: QLQLQESGPGLVKPSETLSLTCTVSGGSISWSSYYWSWIRQPPGKGLEWIGNIYYSGSTYYNPSLKSRVTISVDTSKNQFSLKLSSVTAADTAVYYCARLGHGYNYFDLWGRGTLVTVSS VL: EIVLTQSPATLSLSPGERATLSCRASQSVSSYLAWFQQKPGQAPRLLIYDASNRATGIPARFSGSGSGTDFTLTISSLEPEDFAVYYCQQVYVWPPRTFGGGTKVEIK — recorded Kd = 0.4 nM
